target-of-assay: P-gp (Homo sapiens)
Construct: purchased Promega V3601
Sequence (P08183 whole entry): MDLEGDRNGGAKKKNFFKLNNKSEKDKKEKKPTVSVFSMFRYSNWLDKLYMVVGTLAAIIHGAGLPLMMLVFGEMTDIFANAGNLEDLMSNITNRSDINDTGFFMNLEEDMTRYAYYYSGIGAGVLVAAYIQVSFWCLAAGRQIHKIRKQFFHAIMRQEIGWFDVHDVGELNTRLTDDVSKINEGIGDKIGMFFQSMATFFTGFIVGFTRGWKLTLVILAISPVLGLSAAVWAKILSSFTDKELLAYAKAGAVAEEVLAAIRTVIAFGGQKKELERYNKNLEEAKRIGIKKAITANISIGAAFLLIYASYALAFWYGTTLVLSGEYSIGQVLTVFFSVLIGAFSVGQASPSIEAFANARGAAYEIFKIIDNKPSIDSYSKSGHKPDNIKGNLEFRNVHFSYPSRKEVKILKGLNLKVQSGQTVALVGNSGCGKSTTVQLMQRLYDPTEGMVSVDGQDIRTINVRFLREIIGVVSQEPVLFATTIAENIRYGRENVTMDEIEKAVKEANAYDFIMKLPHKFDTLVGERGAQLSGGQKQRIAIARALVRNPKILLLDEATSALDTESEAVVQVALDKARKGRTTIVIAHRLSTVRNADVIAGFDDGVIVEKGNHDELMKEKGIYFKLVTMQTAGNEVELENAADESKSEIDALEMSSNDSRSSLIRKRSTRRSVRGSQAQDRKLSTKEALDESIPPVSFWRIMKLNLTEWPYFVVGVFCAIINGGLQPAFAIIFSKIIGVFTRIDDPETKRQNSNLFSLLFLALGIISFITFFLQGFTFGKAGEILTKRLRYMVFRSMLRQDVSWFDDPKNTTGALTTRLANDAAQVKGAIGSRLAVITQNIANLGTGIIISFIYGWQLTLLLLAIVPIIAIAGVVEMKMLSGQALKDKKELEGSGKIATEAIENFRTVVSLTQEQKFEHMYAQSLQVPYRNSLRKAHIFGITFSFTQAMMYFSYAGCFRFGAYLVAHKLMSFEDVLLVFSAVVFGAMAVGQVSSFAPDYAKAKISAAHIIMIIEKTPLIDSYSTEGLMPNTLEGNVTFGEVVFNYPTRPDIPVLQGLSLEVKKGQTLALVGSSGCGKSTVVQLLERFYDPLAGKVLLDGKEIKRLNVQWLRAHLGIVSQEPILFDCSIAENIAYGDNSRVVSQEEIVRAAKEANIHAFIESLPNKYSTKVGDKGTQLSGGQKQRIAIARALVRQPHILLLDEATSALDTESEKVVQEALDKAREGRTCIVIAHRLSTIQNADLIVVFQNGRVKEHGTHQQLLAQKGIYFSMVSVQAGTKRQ
assay-overview: Luminogenic P-gp (ATPase) inhibition assay
Assay type: biochemical
condition-parameters: specific inhibitor positive control, means ± S.D., read-out: IC50 Inhibitors
property: pIC50
# pIC50 = -log10(concentration in molar units)

[Q] Fill in reported pIC50 for this entry: [Na+].[Na+].[Na+].[O]=[V]([O-])([O-])[O-] [Na3VO4]
[A] 5.47

---

target-of-assay: UGT1A1 (Homo sapiens, UniProt P22309)
Construct: purchased Promega V2120
Sequence (P22309 26-533): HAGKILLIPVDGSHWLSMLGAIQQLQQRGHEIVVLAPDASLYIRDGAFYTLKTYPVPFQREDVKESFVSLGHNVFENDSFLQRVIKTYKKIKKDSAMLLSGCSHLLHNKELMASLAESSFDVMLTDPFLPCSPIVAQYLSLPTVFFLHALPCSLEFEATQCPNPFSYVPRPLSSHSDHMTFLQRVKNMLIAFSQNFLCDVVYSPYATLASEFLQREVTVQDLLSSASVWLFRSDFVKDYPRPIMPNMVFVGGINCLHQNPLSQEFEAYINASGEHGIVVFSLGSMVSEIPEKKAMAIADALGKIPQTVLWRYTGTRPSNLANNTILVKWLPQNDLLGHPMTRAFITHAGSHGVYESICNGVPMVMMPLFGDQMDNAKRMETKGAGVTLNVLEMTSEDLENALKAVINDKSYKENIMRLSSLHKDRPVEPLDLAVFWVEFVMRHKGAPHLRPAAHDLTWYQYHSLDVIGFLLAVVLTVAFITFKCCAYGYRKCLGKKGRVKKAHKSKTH
assay-overview: Luminogenic UGT1A1 inhibition assay
Type: biochemical
condition-parameters: specific inhibitor positive control, means ± S.D., read-out: IC50 Inhibitors
property: pIC50
# pIC50 = -log10(concentration in molar units)

[Q] Report pIC50 under test system UGT1A1 (Homo sapiens, UniProt P22309) for O=C(O)Cc1ccccc1Nc1c(Cl)cccc1Cl [Diclofenac] .
[A] 3.74
